Below: a set of entries, each annotated with reported interaction score.
# TGT: T1, P8mSN
# T1 chain: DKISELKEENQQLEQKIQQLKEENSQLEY
# ASSAY_OVERVIEW: two-hybrid library CCNG1;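 also: natural log of median RNA to DNA barcode read ratio; higher means stronger binding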

Examples with their reported interaction score follow.
Entry DEIQQLEEKNSQLKQEISQLEEKNQELKY [P7mSN] has what interaction score? 0.927

Now the same for DKNEQLKEKISELKEKIEQLKEENQSLEY [P12mSN] -2.51

Now the same for DKISELKEENQQLEQKIQQLKEENSQLEY [P8mSN] -0.489

Now the same for DKNSQLKEENSQLEEKIEQLKEKIQELKY [P10mSN] -0.586

Now the same for DKISQLKEKIQQLKQENQQLEEENSQLEY [P4mSN] -1.53

---
Entry DEIRQLEQENSQLERENQRLEQEIYQLER [P1mSN] has what interaction score? -1.17
